Entries and their melting point

- Molecule: "O=C(O)CCc1cnoc1-c1ccccc1 [Example 7, 3-(5-phenyl-4-isoxazolyl)propionic acid]"
  Reported value: "90 to 91 °C"

In: // query melting point value for entry CCOP(=O)(O)Cc1ccc(NC(=O)CCc2cnoc2-c2ccccc2)cc1
Out: 80 to 82 °C

In: Which melting point value belongs to CCOP(=O)(Cc1ccc(NC(=O)CCc2cnoc2-c2ccc(F)cc2)cc1)OCC ?
Out: 134 to 135 °C

In: # get_value(readout='melting point', item= COC(=O)CCc1cnoc1-c1cc(Cl)c(Cl)s1 [Example 124] )
Out: 49 to 50 °C

In: GET /values?readout=melting point&item= O=C(O)CCc1c(-c2ccccc2)noc1-c1ccccc1 [Example 146]
Out: 152 to 153 °C
